Biological target: LPAAT-β (Homo sapiens, UniProt O15120)
Sequence (O15120 24-278): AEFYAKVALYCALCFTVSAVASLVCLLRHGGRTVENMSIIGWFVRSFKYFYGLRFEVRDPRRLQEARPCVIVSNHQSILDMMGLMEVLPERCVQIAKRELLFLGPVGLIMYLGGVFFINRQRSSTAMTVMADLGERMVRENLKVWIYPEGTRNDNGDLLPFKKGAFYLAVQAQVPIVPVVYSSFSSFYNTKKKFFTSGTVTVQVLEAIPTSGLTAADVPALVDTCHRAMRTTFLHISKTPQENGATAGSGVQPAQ
Assignment: determine reported IC50 for the given compounds.
Respond with the bare value in nM.

# query: IC50 of entry `C#CCOC(=O)Nc1ccc(Cl)c(-c2nc3cc(Cl)ccc3o2)c1`
35

If you can, please state the reported IC50 value of `N#CCC(=O)Nc1ccc(Cl)c(-c2nc3cccnc3o2)c1` .
190

Look up IC50 for this compound: `COC(=O)Nc1ccc(Cl)c(-c2nc3cc(Cl)ccc3o2)c1`
300

# input compound: `C#CCOC(=O)Nc1ccc(Cl)c(-c2nc3ncccc3o2)c1` ; wanted: its IC50
800

For `[N-]=[N+]=NCC(=O)Nc1ccc(Cl)c(-c2nc3cc(Cl)ccc3o2)c1` , what is its reported IC50?
175

What IC50 value was documented for this compound, `N#CCC(=O)Nc1ccc(Cl)c(-c2nc3cccnc3s2)c1` ?
110

# input compound: `CCC(=O)N(C)c1ccc(Cl)c(-c2nc3cc(C)ccc3o2)c1` ; wanted: its IC50
12000

Quick one: IC50 for `C#CCOC(=O)Nc1ccc(C)c(-c2nc3cc(Cl)ccc3s2)c1` ?
150

So what does the record say about IC50 for `CCC(=O)Nc1ccc(Cl)c(-c2nc3cc(C(F)(F)F)ccc3s2)c1` ?
220
